Please provide measured kon for the entries that follow.
# Measured On: T1, soluble heterodimeric hCD3ε/δ.mFc protein (human)
# T1 construct: also called soluble human CD3; soluble heterodimeric CD3 protein
# T1 chain 1: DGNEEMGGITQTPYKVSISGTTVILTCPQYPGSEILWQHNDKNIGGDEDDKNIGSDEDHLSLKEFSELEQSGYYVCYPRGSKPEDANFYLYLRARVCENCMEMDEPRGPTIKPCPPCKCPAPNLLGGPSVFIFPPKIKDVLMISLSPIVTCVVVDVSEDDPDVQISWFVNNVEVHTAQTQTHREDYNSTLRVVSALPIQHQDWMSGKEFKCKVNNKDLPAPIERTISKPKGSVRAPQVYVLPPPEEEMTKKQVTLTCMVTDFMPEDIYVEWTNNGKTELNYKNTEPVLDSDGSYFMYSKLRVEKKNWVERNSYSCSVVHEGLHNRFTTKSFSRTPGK
# T1 chain 2: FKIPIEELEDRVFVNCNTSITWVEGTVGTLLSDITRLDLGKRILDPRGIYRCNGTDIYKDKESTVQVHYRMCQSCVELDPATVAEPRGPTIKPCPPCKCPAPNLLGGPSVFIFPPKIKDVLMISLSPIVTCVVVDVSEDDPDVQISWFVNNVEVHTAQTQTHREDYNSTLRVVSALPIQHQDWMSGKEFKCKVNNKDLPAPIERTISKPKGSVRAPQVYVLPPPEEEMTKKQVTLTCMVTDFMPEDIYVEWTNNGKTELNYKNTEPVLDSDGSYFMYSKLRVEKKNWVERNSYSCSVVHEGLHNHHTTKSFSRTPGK
# Assay Notes: SPR MASS-1, 37 C, antigen-capture (hCD3ε/δ.mFc captured), antibody injected
Lab book: enter the figure in M⁻¹ s⁻¹, no units written.

Please give the documented kon of BSPSMA/CD3-1300 (bispecific antibody, IgG4, V domains shown, modified (chimeric) IgG4 Fc domain; also called PSMA-VH-11810 x CD3-VH-G13) VH 1: QVQLVESGGGVVQPGRSLRLSCAASGFTFSSYGMHWVRQAPGKGLEWVAVISYAGNNKYYADSVKGRFTVSRDNSKKTLYLQMNSLRSEDTAVYYCAKDSYYDFLTDPDVLDIWGQGTMVTVSS VH 2: EVQLVESGGGLVQPGRSLRLSCAASGFTFDDYSMHWVRQAPGKGLEWVSGISWNSGSIGYADSVKGRFTISRDNAKNSLYLQMNSLRAEDTALYYCAKYGSGYGKFYYYGLDVWGQGTTVTVSS VL: DIQMTQSPSSLSASVGDSVTITCRASQSINNYLNWYQQKPGKAPKLLIYTASSLLSGVPSRFSGSGSGTDFTLTISGLHPEDFATYFCQQSFSTPPITFGQGTRLDIK 20300

Please give the documented kon of BSPSMA/CD3-005 (bispecific antibody, IgG4, V domains shown, modified (chimeric) IgG4 Fc domain; also called PSMA-VH-11810 x CD3-VH-G20) VH 1: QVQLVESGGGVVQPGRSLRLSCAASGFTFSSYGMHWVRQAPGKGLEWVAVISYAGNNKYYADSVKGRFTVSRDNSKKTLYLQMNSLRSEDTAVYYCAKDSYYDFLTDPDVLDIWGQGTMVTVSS VH 2: EVQLVESGGGLVQPGRSLRLSCAASGFTFDDYSMHWVRQAPGKGLEWVSGISWNSGSIGYADSVKGRFTISRDNAKNSLYLQMNSLRAEDTALYYCAKYGSGYGKFYYYGMDVWGQGTTVTVSS VL: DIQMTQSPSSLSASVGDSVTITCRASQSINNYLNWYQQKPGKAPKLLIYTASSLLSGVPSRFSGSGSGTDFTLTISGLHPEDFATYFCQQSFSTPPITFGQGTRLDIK 17300
